- System: Escherichia coli TOP10
- Assay method text: shrunken log2 fold change of peptide-encoding DNA abundance (4.5 h post-induction vs induction); higher = less antimicrobial activity (less host growth inhibition)
- Condition parameters: time post-induction: 4.5 h; library: site-saturation at positions 5, 18, 19, 20
Quick rule for you: shrunken log2 fold change at -0.2 or higher means Condition met, lower means Condition not met.

Sequence data: RRIRRRPPRLPRPRPRPYFLPRP
Assigned class: Condition not met
--
Sequence data: RRIRIRPPRLPRPRPRPYTWPRP
Assigned class: Condition not met
--
Sequence data: RRIRQRPPRLPRPRPRPALEPRP
Assigned class: Condition met
--
Sequence data: RRIRFRPPRLPRPRPRPQVHPRP
Assigned class: Condition not met
--
Sequence data: RRIRMRPPRLPRPRPRPYFFPRP
Assigned class: Condition met
--
Sequence data: RRIRWRPPRLPRPRPRPRRHPRP
Assigned class: Condition met
--
Sequence data: RRIRRRPPRLPRPRPRPVLKPRP
Assigned class: Condition met
--
Sequence data: RRIRYRPPRLPRPRPRPTNPPRP
Assigned class: Condition met
--
Sequence data: RRIRHRPPRLPRPRPRPAGSPRP
Assigned class: Condition met
--
Sequence data: RRIRRRPPRLPRPRPRPTNAPRP
Assigned class: Condition met

Ask | Identify whether the reported shrunken log2 fold change of the following sequence is -0.2 or greater: `RRIRRRPPRLPRPRPRPQRCPRP`
Reply | Condition met

Ask | Check this sequence for shrunken log2 fold change at or above -0.2: `RRIRFRPPRLPRPRPRPDEHPRP`
Reply | Condition met

Ask | Please check the record `RRIRQRPPRLPRPRPRPSAWPRP` and state if its shrunken log2 fold change is at or above -0.2.
Reply | Condition met

Ask | Confirm if shrunken log2 fold change reported for the sequence `RRIRLRPPRLPRPRPRPQSFPRP` is -0.2 or above.
Reply | Condition met

Ask | Evaluate `RRIRIRPPRLPRPRPRPKKVPRP` : shrunken log2 fold change at minimum -0.2?
Reply | Condition not met

Ask | For this sequence, is measured shrunken log2 fold change -0.2 or higher? `RRIRRRPPRLPRPRPRPSRMPRP`
Reply | Condition met

###

- Tested on: Escherichia coli TOP10
- Assay method text: shrunken log2 fold change of peptide-encoding DNA abundance (4.5 h post-induction vs induction); higher = less antimicrobial activity (less host growth inhibition)
- Condition parameters: time post-induction: 4.5 h; library: site-saturation at positions 5, 18, 19, 20
Experimental endpoint: shrunken log2 fold change
Respond with the number and no other words.

Here is how some sequences turned out for shrunken log2 fold change.
Sequence data: RRIRMRPPRLPRPRPRPAVCPRP
shrunken log2 fold change: 0.103

Sequence data: RRIRCRPPRLPRPRPRPMIQPRP
shrunken log2 fold change: -0.417

Sequence data: RRIRDRPPRLPRPRPRPVKYPRP
shrunken log2 fold change: -0.346

Sequence data: RRIRCRPPRLPRPRPRPSCFPRP
shrunken log2 fold change: -0.205

Sequence data: RRIRVRPPRLPRPRPRPIAWPRP
shrunken log2 fold change: 0.468

Sequence data: RRIRVRPPRLPRPRPRPGDEPRP
shrunken log2 fold change: 0.122

Ask | Could you share which shrunken log2 fold change value was measured for `RRIRGRPPRLPRPRPRPVDWPRP` ?
Reply | 1.03

Ask | Field request: shrunken log2 fold change | item: `RRIRHRPPRLPRPRPRPASDPRP`
Reply | -0.0278

Ask | GET /values?readout=shrunken log2 fold change&item= `RRIRFRPPRLPRPRPRPTWKPRP`
Reply | 0.32

Ask | Please look up its shrunken log2 fold change: `RRIRFRPPRLPRPRPRPDWMPRP`
Reply | -0.0628

###

- System: Escherichia coli TOP10
- Assay method text: shrunken log2 fold change of peptide-encoding DNA abundance (4.5 h post-induction vs induction); higher = less antimicrobial activity (less host growth inhibition)
- Condition parameters: time post-induction: 4.5 h; library: site-saturation at positions 5, 18, 19, 20
// reported shrunken log2 fold change per item

Examples with their reported shrunken log2 fold change follow.
Sequence data: RRIRRRPPRLPRPRPRPEIRPRP
shrunken log2 fold change: 0.0292
//
Sequence data: RRIRERPPRLPRPRPRPLMLPRP
shrunken log2 fold change: -0.813

Ask | Give its shrunken log2 fold change value. Item: `RRIRSRPPRLPRPRPRPSWMPRP`
Reply | -0.0505

Ask | Need shrunken log2 fold change, item `RRIRMRPPRLPRPRPRPTPLPRP`
Reply | 1.01

Ask | Requested field: shrunken log2 fold change. Item: `RRIRYRPPRLPRPRPRPNSKPRP`
Reply | -0.875

Ask | Query (sequence): `RRIRNRPPRLPRPRPRPGSAPRP` ; field requested: shrunken log2 fold change
Reply | 0.025

Ask | Value lookup for shrunken log2 fold change; key = `RRIRVRPPRLPRPRPRPSKNPRP`
Reply | -0.364

Ask | So what's the measured shrunken log2 fold change for this one? `RRIRLRPPRLPRPRPRPFHWPRP`
Reply | -0.000687

Ask | Endpoint output: shrunken log2 fold change of `RRIRYRPPRLPRPRPRPAQCPRP` . Value?
Reply | -0.0254

###

shrunken log2 fold change overview
- Tested on: Escherichia coli TOP10
- Assay method text: shrunken log2 fold change of peptide-encoding DNA abundance (4.5 h post-induction vs induction); higher = less antimicrobial activity (less host growth inhibition)
- Condition parameters: time post-induction: 4.5 h; library: site-saturation at positions 5, 18, 19, 20
Form: value (number only, do not type unit).

Sequence data: RRIRYRPPRLPRPRPRPNARPRP
System under test: Escherichia coli TOP10
Measured number: -0.0675

Ask | Reported shrunken log2 fold change, sequence `RRIRPRPPRLPRPRPRPTWIPRP` : ____
Reply | 0.184

Ask | Reported shrunken log2 fold change for `RRIRYRPPRLPRPRPRPPQAPRP` : what is it?
Reply | 0.114

Ask | Can you look up the measured shrunken log2 fold change of `RRIRMRPPRLPRPRPRPVCCPRP` for me?
Reply | 0.496

###

- System: Escherichia coli TOP10
- Assay method text: shrunken log2 fold change of peptide-encoding DNA abundance (4.5 h post-induction vs induction); higher = less antimicrobial activity (less host growth inhibition)
- Condition parameters: time post-induction: 4.5 h; library: site-saturation at positions 5, 18, 19, 20
Experimental endpoint: shrunken log2 fold change
// keep it numeric: no unit symbol after the value

Sequence data: RRIRMRPPRLPRPRPRPIDKPRP
Experimental endpoint: shrunken log2 fold change
Measured number: -0.197

Sequence data: RRIRPRPPRLPRPRPRPDRHPRP
Experimental endpoint: shrunken log2 fold change
Measured number: -0.31

Sequence data: RRIRKRPPRLPRPRPRPFRYPRP
Experimental endpoint: shrunken log2 fold change
Measured number: -0.0832

Sequence data: RRIRKRPPRLPRPRPRPCHIPRP
Experimental endpoint: shrunken log2 fold change
Measured number: -0.00879

Sequence data: RRIRARPPRLPRPRPRPWLFPRP
Experimental endpoint: shrunken log2 fold change
Measured number: 0.547

Ask | Item under review: `RRIRGRPPRLPRPRPRPTQNPRP` . Reported shrunken log2 fold change?
Reply | 0.972

Ask | Query (sequence): `RRIRQRPPRLPRPRPRPKMPPRP` ; field requested: shrunken log2 fold change
Reply | -0.0283

Ask | Tell me the measured shrunken log2 fold change of `RRIRWRPPRLPRPRPRPGIIPRP` , please.
Reply | -0.0357

###

- Tested on: Escherichia coli TOP10
- Assay method text: shrunken log2 fold change of peptide-encoding DNA abundance (4.5 h post-induction vs induction); higher = less antimicrobial activity (less host growth inhibition)
- Condition parameters: time post-induction: 4.5 h; library: site-saturation at positions 5, 18, 19, 20
Experimental endpoint: shrunken log2 fold change

In the examples that follow, each entry is paired with its recorded shrunken log2 fold change.
Sequence data: RRIRLRPPRLPRPRPRPVSPPRP
System under test: Escherichia coli TOP10
shrunken log2 fold change: -0.00493

Sequence data: RRIRRRPPRLPRPRPRPFELPRP
System under test: Escherichia coli TOP10;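 also: peptides expressed intracellularly from a pBAD plasmid library in pooled LB shake-flask culture, induced with 0.3% L-arabinose, DNA abundance read by NGS, three biological replicates, DESeq2 with apeglm shrinkage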
shrunken log2 fold change: -0.249

Ask | GET /values?readout=shrunken log2 fold change&item= `RRIRMRPPRLPRPRPRPDHRPRP`
Reply | -0.279

Ask | Data request, read-out shrunken log2 fold change, for `RRIRDRPPRLPRPRPRPGTSPRP`
Reply | -0.0025

Ask | Quick check: shrunken log2 fold change of `RRIRGRPPRLPRPRPRPMLVPRP` ?
Reply | 0.418

Ask | Reported shrunken log2 fold change for `RRIRPRPPRLPRPRPRPQPKPRP` : what is it?
Reply | 0.147

Ask | Dear colleague, I am looking for the recorded shrunken log2 fold change of the following sequence: `RRIRDRPPRLPRPRPRPEPNPRP`
Reply | 0.746

Ask | State the recorded shrunken log2 fold change for this entry: `RRIRKRPPRLPRPRPRPEGGPRP`
Reply | 0.543

Ask | Recorded shrunken log2 fold change for `RRIRHRPPRLPRPRPRPGSWPRP` , please?
Reply | 0.112

Ask | Would you kindly share the measured shrunken log2 fold change for `RRIRNRPPRLPRPRPRPQYTPRP` ?
Reply | -0.737
